Data origin: patent US20250228958A1

- RUN_DESCRIPTION: Serum stability test, monkey serum
- Assay type: in vitro ADME, cynomolgus monkey
- STUDY_CONDITIONS: male, residual ratio: IS ratio at 4 hours relative to 0 hours, 37° C.
Starred links: 1 amine or outer side, 2 acyl side, 3 side chain; linkers in the order of their positions; H or OH if unused. Positions of bridges follow the written chain, without caps; N, C: chain ends. Non-standard residues stand in square brackets, D forms with d. Residues, ends and D or L forms follow the SMILES beside them. 2Nal = N[C@@H](Cc1ccc2ccccc2c1)C(=O)O; Gly(cPent) = N[C@H](C(=O)O)C1CCCC1; Agb = N=C(N)NCC[C@H](N)C(=O)O; hCys = N[C@@H](CCS)C(=O)O; CH2 = C([*:1])[*:2]
OBSERVED_PROPERTY: remaining at 4 h, 20 μM (%)
A number alone suffices; assume %.

See these solved cases before continuing.
INSERT INTO assay_data (compound, observed_property, val) VALUES
  ('N=C(N)NCCC[C@@H]1NC(=O)CNC(=O)[C@@H]2CSCSCC[C@H](NC(=O)[C@H](Cc3c[nH]c4ccccc34)NC(=O)[C@H](CC(=O)O)NC1=O)C(=O)N[C@@H](CCCNC(=N)N)C(=O)N[C@@H](Cc1c[nH]c3ccccc13)C(=O)N[C@@H](C1CCCC1)C(=O)N[C@H](C(N)=O)CSCC(=O)N[C@@H](Cc1ccc3ccccc3c1)C(=O)N[C@@H](CCCNC(=N)N)C(=O)N2 [Peptide-131] ({CH2CO}-[2Nal]RCGRDW[hCys]RW[Gly(cPent)]C-NH2; linker 3-8 via CH2; thioether N-12)', 'remaining at 4 h, 20 μM', 89.2),
  ('N=C(N)NCCC[C@@H]1NC(=O)CNC(=O)[C@@H]2CCSCSCC[C@H](NC(=O)[C@H](Cc3c[nH]c4ccccc34)NC(=O)[C@H](CC(=O)O)NC1=O)C(=O)N[C@@H](CCCNC(=N)N)C(=O)N[C@@H](Cc1c[nH]c3ccccc13)C(=O)N[C@@H](C1CCCC1)C(=O)N[C@H](C(N)=O)CSCC(=O)N[C@@H](Cc1ccc3ccccc3c1)C(=O)N[C@@H](CCCNC(=N)N)C(=O)N2 [Peptide-127] ({CH2CO}-[2Nal]R[hCys]GRDW[hCys]RW[Gly(cPent)]C-NH2; linker 3-8 via CH2; thioether N-12)', 'remaining at 4 h, 20 μM', 95.1),
  ('N=C(N)NCCC[C@@H]1NC(=O)CNC(=O)[C@@H]2CCSSCC[C@H](NC(=O)[C@H](Cc3c[nH]c4ccccc34)NC(=O)[C@H](CC(=O)O)NC1=O)C(=O)N[C@@H](CCCNC(=N)N)C(=O)N[C@@H](Cc1c[nH]c3ccccc13)C(=O)N[C@@H](C1CCCC1)C(=O)N[C@H](C(N)=O)CSCC(=O)N[C@@H](Cc1ccc3ccccc3c1)C(=O)N[C@@H](CCCNC(=N)N)C(=O)N2 [Peptide-11] ({CH2CO}-[2Nal]R[hCys]GRDW[hCys]RW[Gly(cPent)]C-NH2; disulfide 3-8; thioether N-12)', 'remaining at 4 h, 20 μM', 89.9);

Proceeding to the next compound to report its remaining at 4 h, 20 μM.
Task item: Quick one: remaining at 4 h, 20 μM of CC(C)[C@@H]1NC(=O)[C@H](Cc2c[nH]c3ccccc23)NC(=O)[C@H](CC(N)=O)NC(=O)[C@H](CCNC(=N)N)NC(=O)CNC(=O)[C@H](CO)NC(=O)[C@H](CCCNC(=N)N)NC(=O)[C@H](Cc2ccc3ccccc3c2)NC(=O)CSC[C@@H](C(N)=O)NC(=O)[C@H](C2CCCC2)NC(=O)[C@H](Cc2c[nH]c3ccccc23)NC(=O)[C@H](CCCNC(=N)N)NC1=O [Peptide-115] ({CH2CO}-[2Nal]RSG[Agb]NWVRW[Gly(cPent)]C-NH2; thioether N-12) ?
Reply: 14.9
